Procedure Text: Half life in human liver microsomes at 1 uM in presence of NADPH
Condition Label: liver microsomes
Property: half-life at 1 µM; scope: individual molecules
Write the number in h without appending the unit.

The cases that follow already have their half-life at 1 µM on record.
CC(C)(C)c1ccc(C(=O)Nc2ccc(C(F)(F)F)nc2)cc1
0.683
C[C@]12C=CC(=O)N[C@@H]1CC[C@@H]1[C@@H]2CC[C@]2(C)[C@@H](C(=O)NC3(C(F)(F)F)CC3)CC[C@@H]12
1.9
N#Cc1ccc(-c2ccc(C3(C(F)(F)F)CC3)nc2)nc1
1.83
N#Cc1cc(-c2ccc(C3(C(F)(F)F)CC3)cc2)ccn1
1.15
CC(C)(C)c1ccc(C(=O)Nc2ccc(C#N)cc2)cc1
1.42

Exercise: Need half-life at 1 µM, item `CC(C)(C)c1ccc(-c2ccnc(C#N)c2)cc1`
Key: 0.417

Exercise: Need half-life at 1 µM, item `N#Cc1ccc(-c2ccc(C3(C(F)(F)F)CC3)cc2)nc1`
Key: 2.5

Exercise: Need half-life at 1 µM, item `Fc1ccc(-c2ccc(C3(C(F)(F)F)CC3)cc2)nc1`
Key: 1.07

Exercise: Need half-life at 1 µM, item `CC(C)(C)c1ccc(C(=O)Nc2ccc(C#N)nc2)cc1`
Key: 0.85

Exercise: Need half-life at 1 µM, item `CC(C)(C)c1ccc(C(=O)Nc2ccc(C(F)(F)F)cc2)cc1`
Key: 0.483

Exercise: Need half-life at 1 µM, item `N#Cc1ccc(NC(=O)c2ccc(C3(C(F)(F)F)CC3)cc2)cn1`
Key: 1.47
